Source listed as the supplement of paper PMC10127200.

# Test system: A549
# MEASUREMENT_NOTES: Euclidean distance of Cell Painting phenotypic profile (signed KS, 77 features) to DMSO centroid (dimensionless distance); 5 or 10 uM (library dependent); higher = stronger phenotypic change vs DMSO (phenoactivity)
# CONDITION_INFO: 48 h
Euclidean distance reference

- COMPOUND: "CC1(C)O[C@@H]2C[C@H]3[C@@H]4CCC5=CC(=O)C=C[C@]5(C)[C@H]4[C@@H](O)C[C@]3(C)[C@]2(C(=O)CO)O1 [Desonide]"
  Euclidean distance: 1.9
- COMPOUND: "O=C(Nc1ccccc1)c1cc([N+](=O)[O-])ccc1Cl"
  Euclidean distance: 0.897
- COMPOUND: "S=c1nc[nH]c2nc[nH]c12 [6-Mercaptopurine (6-MP) Monohydrate]"
  Euclidean distance: 0.49
- COMPOUND: "C=CC(=O)N1C[C@H](Nc2ncnc3[nH]ccc23)CC[C@@H]1C"
  Euclidean distance: 0.386
- COMPOUND: "O=C(O)C1(c2ccc(-c3ccc(Cl)c(Cl)c3)c(F)c2)CC1"
  Euclidean distance: 1.02
